- protocol_description: Volume of distribution at steady state in Sprague-Dawley rat at 2 mg/kg, iv and 5 mg/kg, po
- Assay type: ADME, organism-based
- condition_details: in vivo, read-out: Vdss
metric_name: Vd (L/kg)
The figure you give is taken to be in L/kg; do not add the unit.

Worked cases, Vd given:
- input_smiles: "CCCCCOC(=O)N1CCN(C(=O)[C@H](CCC(=O)O)NC(=O)c2cc(OC(=O)N3CCOCC3)cc(-c3ccccc3)n2)CC1"
  Vd [L/kg]: 31
- input_smiles: "CCCCCOC(=O)N1CCN(C(=O)[C@H](CCC(=O)O)NC(=O)c2cc(CCCN(CC)CC)cc(-c3ccccc3)n2)CC1"
  Vd [L/kg]: 9.2
- input_smiles: "CCCCCOC(=O)N1CCN(C(=O)[C@H](CCC(=O)O)NC(=O)c2cc(OC3CCN(C(C)=O)CC3)cc(-c3ccccc3)n2)CC1"
  Vd [L/kg]: 0.58
- input_smiles: "CCCCCOC(=O)N1CCN(C(=O)[C@H](CCC(=O)O)NC(=O)c2cc(N3CCC(CN(C)C)CC3)cc(-c3ccccc3)n2)CC1"
  Vd [L/kg]: 2.1
- input_smiles: "CCCCCCOC(=O)N1CCN(C(=O)[C@H](CCC(=O)O)NC(=O)c2cc(OC3CCNCC3)cc(-c3ccccc3)n2)CC1"
  Vd [L/kg]: 6.9

Using the record for `CCCCCOC(=O)N1CCN(C(=O)[C@H](CCC(=O)O)NC(=O)c2cc(OCC3CCN(C(C)C)CC3)cc(-c3ccccc3)n2)CC1` , report its Vd.
3.4

GET /values?readout=Vd&item= `CCOC(=O)N1CCN(C(=O)[C@H](CCC(=O)O)NC(=O)c2cc(N3CCOCC3)cc(-c3ccccc3)n2)CC1`
3.4
